System: SF-539 CNS
Assay: NCI tumour cell line growth inhibition, 48 h
Where a SMILES comes first, the peptide text is derived from it. The star is where a group is joined. Palmitoyl = CCCCCCCCCCCCCCCC(=O)*
Please go through the items and note down their log10(TGI).
# log10 transformed; quantity=TGI; unit=µM

Compound | Target desc | log10(TGI)
O=[N+]([O-])c1cccnc1N=Nc1c(O)[nH]c2ccccc12 | SF-539 CNS | 1.10

# batch size: 2; output log10(TGI) per entry
1. COc1cc2c(cc1OCCCCCN1CCN(c3ncnc4ccccc34)CC1)N=CC1CCCN1C2=O (stereo not given)
2. COc1cc2c(cc1OCCCN1CCN(CCCOc3cc4c(cc3OC)C(=O)N3CC(F)(F)C[C@H]3C=N4)CC1)N=C[C@@H]1CC(F)(F)CN1C2=O

A)
1. -1.16
2. 0.96

Can you give me log10(TGI) for all of these, one by one?
1. O=c1[nH]c(-c2cccc(F)c2)cc2cc(F)ccc12
2. Cc1cc(N(C)C)c2ccccc2[n+]1CCCCCCCCCC[n+]1c(C)cc(N(C)C)c2ccccc21
3. COc1ccc2oc(=N)c(C(=O)Nc3ccccc3)cc2c1
4. COc1ccc(C(=O)NCCN(C)C)c2nc3ccccc3cc12
5. CSc1nc2c(c(N(C)C)n1)C(O)n1c(nc3ccccc31)S2 (stereo not given)
6. Cc1ccnc(NC(=S)Nc2ccc([N+](=O)[O-])cc2)c1
7. Oc1oc(C(=C2N=c3ccccc3=N2)c2ccc(Cl)cc2)c(O)c1-c1ccc(Cl)cc1
8. CCOC(=O)C(Br)=C1OC(=O)c2ccccc2-c2ccccc21 (mixture of isomers)

A)
1. 0.23
2. 0.91
3. 1.71
4. 0.91
5. 1.89
6. 1.93
7. 1.00
8. 1.67

Here are 4 compounds. What values of log10(TGI) were reported for them?
1. CCCCCCCCCCCCCCCC(=O)N1CCCC1C(=O)NCC(=O)NC(Cc1ccccc1)C(=O)N1CCCC1C(=O)NC(CO)C(=O)NC(Cc1ccc(O)cc1)C(=O)NC(CCCCN)C(=O)NC(CC(C)C)C(=O)NC(CCCN=C(N)N)C(=O)N1CCCC1C(=O)NCC(N)=O (stereo not given) (Palmitoyl-PGFPSYKLRPG-NH2; configuration not given here)
2. O=C(CC(=O)Nc1ccccc1)NNC(Sc1ccccc1)c1cc(N=Nc2ccc(Br)cc2)ccc1O (stereo not given)
3. COc1ccc(-c2cc(=O)oc3c4c(ccc23)OCN(Cc2ccc(F)cc2)C4)cc1
4. O=C(CCSC1=NCCCN1)c1ccc(F)cc1

A)
[1.68, 0.90, 1.51, 1.56]

Please state, for each entry, its recorded log10(TGI).
1. O=C1/C(=C/c2ccc(Cl)cc2)CCCc2ccccc21
2. COC1OC2COC(c3ccccc3)OC2C(O)C1OC(=S)c1ccccc1 (stereo not given)

A)
1.50
1.94

Report log10(TGI) for each item below.
1. NCCCn1c2c(c3ccc([N+](=O)[O-])cc3c1=O)C(=O)c1cc(I)ccc1-2
2. C/C1=C\[C@H](C)C[C@H](C)OC(=O)[C@H](C)NC(=O)[C@@H](Cc2ccc(O)c(Br)c2)N(C)C(=O)[C@H](C)NC(=O)[C@@H](C)C1

A)
0.08
-0.93

###

Give measured TGI for each item. Keep answers brief.
System: DLD-1 colon
Assay: NCI tumour cell line growth inhibition, 48 h

Molecule | TGI
O=C1NC(O)CCN1C1OC(CO)C(O)C1O (stereo unspecified) | > 250 µM
O=C(NN1C(=O)CS(=O)(=O)C1c1ccc(C(F)(F)F)cc1)c1ccncc1 (stereo unspecified) | > 100 µM
COCOCCC#CCO | > 100 µM
CC(=O)N/C(=C\c1ccccc1/C=C(\NC(C)=O)c1nc2cc(C)c(C)cc2[nH]1)c1nc2cc(C)c(C)cc2[nH]1 | 56.5 µM

Kindly give each listed record's TGI.
1. O=C1c2cccc3cccc(c23)C(=O)N1CCN(CCO)CCO
2. CCOC(=O)CNC(=O)NC12CC3CC(CC(C3)C1)C2

A)
1: > 100 µM; 2: > 87.2 µM

Cited source: PubChem BioAssay (NCI)
